Recorded values, source ChEMBL document CHEMBL4052774.

molecular target: Peroxisome proliferator-activated receptor gamma (Homo sapiens); assay: Displacement of fluormone-PPARgamma green from GST-tagged PPARgamma-LBD (unknown origin) by fluorescence polarization assay; settings: read-out: IC50
Sequence (P37231 whole entry, the tested form may be a part): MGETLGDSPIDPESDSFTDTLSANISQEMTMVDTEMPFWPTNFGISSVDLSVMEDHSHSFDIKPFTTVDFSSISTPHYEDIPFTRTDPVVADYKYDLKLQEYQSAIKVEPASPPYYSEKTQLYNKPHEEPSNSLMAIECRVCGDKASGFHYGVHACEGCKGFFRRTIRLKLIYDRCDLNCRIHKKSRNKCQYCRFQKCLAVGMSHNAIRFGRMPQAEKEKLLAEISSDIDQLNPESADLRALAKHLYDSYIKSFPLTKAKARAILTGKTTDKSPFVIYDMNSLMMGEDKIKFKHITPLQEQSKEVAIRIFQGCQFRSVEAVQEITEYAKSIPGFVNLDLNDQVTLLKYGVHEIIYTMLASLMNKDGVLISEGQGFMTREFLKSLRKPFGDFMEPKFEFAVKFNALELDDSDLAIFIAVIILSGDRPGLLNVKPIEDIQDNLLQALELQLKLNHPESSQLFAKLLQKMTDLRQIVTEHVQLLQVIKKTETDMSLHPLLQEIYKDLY
pIC50: −log10 of the molar value.
Listing of recorded pIC50 by entry.
reported_endpoint: pIC50

compound	meas_value
Cc1ccc(-n2c(SCC(=O)Nc3ccc(S(=O)(=O)NC(=O)NC4CCCCC4)cc3)nc3ccccc3c2=O)cc1	6.40
CC(=O)Nc1ccc(S(=O)(=O)NCCc2ccc(S(=O)(=O)NC(=O)NC3CCC(C)CC3)cc2)cc1C (stereo not given)	5.62
CC(=O)Nc1ccc(S(=O)(=O)NCCc2ccc(S(=O)(=O)NC(=O)NC3CCC(C)CC3)cc2)cc1 (stereo not given)	5.15
O=S(=O)(NCCc1ccc(S(=O)(=O)NC(=S)Nc2ccc(Cl)cc2)cc1)c1ccc(Cl)cc1	4.48
CCCCNC(=O)NS(=O)(=O)c1ccc(NC(=O)CSc2nc3ccccc3c(=O)n2-c2ccc(C)cc2)cc1	6.36
